Read-out: Plasminogen activator inhibitor-1 (PAI1), SERPINE1 (gene 5054)
Experiment: BSK_hDFCGF_PAI1: BioMAP Diversity Plus: hDFCGF Assay for Plasminogen activator inhibitor-1 (PAI1) Biomarker Activity (AID 2283066)
Run conditions: primary human foreskin fibroblasts; actives raise or lower the signal
Procedure: BSK_hDFCGF is a cell-based, multiplexed-readout assay that uses foreskin fibroblast, a human skin primary cell, with measurements taken at 24 hours after chemical dosing in a 96-well plate.BSK_hDFCGF_PAI1 is an assay component measured in the BSK_hDFCGF assay. It measures PAI-1 antibody related to regulation of gene expression using ELISA technology.Data from the assay component BSK_hDFCGF_PAI1 was analyzed into 1 assay endpoint. […]
Activity calls are given as the source filed them. How the source made its calls: active means hit-call score of the fitted dose curve at least 0.9, where 1 is the maximum; inactive means score below 0.9.
The categories you may choose from are YES for active, NO for inactive

Given Cn1c(=O)c2c(ncn2C)n(C)c1=O , state the outcome it received in this test.
NO

And what about the compound C=CC(=C)CCC=C(C)C ?
NO

Follow-up entry: COc1ccc(/C=C/S(=O)(=O)NC(=O)c2ccc(C)cc2Cl)cc1
NO

For CCOc1cccc(-n2cc(C(=O)N3CCN(c4cc(C(=O)O)c5ccccc5c4)CC3)nc2-c2ccc(C)cc2)c1 then?
YES

Field entry: Cc1ccc(N)cc1O
NO

Thanks! And NC(=O)NO ?
NO

Would you mind doing O=C(OC[C@H]1O[C@@H](OC(=O)c2cc(O)c(O)c(OC(=O)c3cc(O)c(O)c(O)c3)c2)[C@H](OC(=O)c2cc(O)c(O)c(OC(=O)c3cc(O)c(O)c(O)c3)c2)[C@@H](OC(=O)c2cc(O)c(O)c(OC(=O)c3cc(O)c(O)c(O)c3)c2)[C@@H]1OC(=O)c1cc(O)c(O)c(OC(=O)c2cc(O)c(O)c(O)c2)c1)c1cc(O)c(O)c(OC(=O)c2cc(O)c(O)c(O)c2)c1 as well?
YES

Also need Fc1ccccc1[C@@H](F)COC1CCC(Nc2ncnc3[nH]ncc23)CC1 (some centres undefined) , thanks.
NO

Do the same for CC(C)=CCC/C(C)=C\CO please
NO
